Reference source: PubChem BioAssay (NCI)

# Tested on: UACC-257 melanoma
# procedureDetails: NCI tumour cell line growth inhibition, 48 h
propertyMeasured: TGI

Check out these entries, answers already filled in.
{"compound": "CCc1cccc(C)c1N1C(=O)C(=O)C(c2nc3ccccc3o2)/C(=N/NC(=S)NN)C1=O (stereo unspecified)", "experimentalSystem": "UACC-257 melanoma", "propertyMeasured": "TGI", "experimentalValue": "> 100 µM"}
{"compound": "Cc1nn(C(=O)c2ccc(Cl)cc2)c2c1C(c1ccccc1O)SC(N)=N2 (stereo unspecified)", "experimentalSystem": "UACC-257 melanoma", "propertyMeasured": "TGI", "experimentalValue": "> 10 µM"}
{"compound": "COc1ccc(C2=NN(C=O)C(c3ccc(OS(=O)(=O)c4ccc(C)cc4)c(OC)c3)C2)cc1 (stereo unspecified)", "experimentalSystem": "UACC-257 melanoma", "propertyMeasured": "TGI", "experimentalValue": "> 100 µM"}
{"compound": "CCN(CC)CCCC(C)Nc1c2ccc(Cl)cc2nc2cc(Cl)ccc12 (stereo unspecified)", "experimentalSystem": "UACC-257 melanoma", "propertyMeasured": "TGI", "experimentalValue": "8.87 µM"}
{"compound": "O=C1C(Cl)=C(N2CCN(CCOCCO)CC2)C(=O)c2ccccc21", "experimentalSystem": "UACC-257 melanoma", "propertyMeasured": "TGI", "experimentalValue": "15.7 µM"}

--- query ---
**Q:** Let me know recorded TGI for O=C(CCc1ccc(O)c(O)c1)NCCc1ccccc1 , thanks.
**A:** > 100 µM

====

# System: OVCAR-3 ovarian
# procedureDetails: NCI tumour cell line growth inhibition, 48 h
propertyMeasured: TGI

Recorded TGI, per entry:
{"compound": "CC1NC(C(=O)O)Cc2cc(O)c(O)cc21 (stereo unspecified)", "TGI": "> 100 µM"}
{"compound": "CCOC(=O)c1cc(-c2ccc([N+](=O)[O-])cc2)c([N+](=O)[O-])[nH]1", "TGI": "> 10 µM"}
{"compound": "Cc1n[nH]c(=O)n1Nc1ccccc1", "TGI": "> 100 µM"}
{"compound": "OC(c1ccccc1)C1CC2C=CC1C2 (stereo unspecified)", "TGI": "> 100 µM"}
{"compound": "CN1C(=S)CSc2ccccc21", "TGI": "> 100 µM"}
{"compound": "COc1ccc(-c2[nH]c(-c3ccc(OC)cc3)c(-c3ccccn3)c2-c2ccccn2)cc1", "TGI": "> 100 µM"}
{"compound": "CC(O)CC(=O)CO[C@H]1[C@H](O)[C@@H](O)[C@@H](O)[C@@H]2NC(=O)c3c(cc4c(c3O)OCO4)[C@H]21 (stereo partly specified)", "TGI": "0.609 µM"}
{"compound": "CC(C)C(=O)Nc1ccc(-c2nc(-c3cccc(OCCN4CCOCC4)c3)c(-c3ccnc(Br)c3)[nH]2)cc1", "TGI": "> 100 µM"}

**Q:** Could you please provide reported TGI for O=C1C[C@@H]2[C@@H](CCC23CCCC3)N1 ? Thanks!
**A:** > 100 µM

**Q:** Find the measured TGI of O=C1CC(C(=O)O)Cc2c(Br)ccc(O)c21 (stereo unspecified) and report it.
**A:** > 100 µM

**Q:** Using the record for O=C(NNC(=S)Nc1ccc(Cl)cc1)C12CC3CC(CC(C3)C1)C2 , state its measured TGI.
**A:** 10.6 µM
